system: LOX IMVI melanoma; test: NCI tumour cell line growth inhibition, 48 h
TGI values for the molecules below.

Answered examples (5):
{"molecule": "COc1cccc(-c2cccc(SC)n2)n1", "measurementLabel": "TGI", "testResult": "> 100 µM"}
{"molecule": "NC(=O)C(=CN1C(=O)CC(=O)NC1=S)C(N)=O", "measurementLabel": "TGI", "testResult": "> 100 µM"}
{"molecule": "Cc1c2ncccc2nc2[nH]c3ccc(OCCN(C)C)cc3c12", "measurementLabel": "TGI", "testResult": "5.78 µM"}
{"molecule": "O=[N+]([O-])c1cc(Cl)cc2c1nc(NCCO)c1ccccc12", "measurementLabel": "TGI", "testResult": "> 100 µM"}
{"molecule": "CCCC[P+](c1ccccc1)(c1ccccc1)c1ccccc1", "measurementLabel": "TGI", "testResult": "> 100 µM"}

Quick one: TGI for "O=C(N/C(=C\c1ccc(Br)cc1)c1nc2ccccc2s1)c1ccccc1" ?
> 100 µM

Quick one: TGI for COc1cc2c(cc1OC)C(Cl)C(c1ccc(Cl)cc1)=C2Cl (stereo not given) ?
25.5 µM

Quick one: TGI for "COc1cccc(Cn2cc3c(c2)-c2oncc2CC3)c1" ?
> 100 µM

Quick one: TGI for "CCOC(=O)N1c2ccccc2S(=O)(=O)c2ccccc21" ?
> 100 µM

Quick one: TGI for "Cc1c2ccnc(-c3ccccc3)c2cc2c1[nH]c1ccccc12" ?
17.6 µM

* * *

test system: NCI-H23 lung; assay: NCI tumour cell line growth inhibition, 48 h
GI50 values for the molecules below.

Answered examples (3):
{"molecule": "C[C@@H]1CC[C@H]2C(COC/C=C/COCC3=C(C(F)(F)F)O[C@@H]4O[C@@]5(C)CC[C@H]6[C@H](C)CC[C@@H]3[C@@]46OO5)=C(C(F)(F)F)O[C@@H]3O[C@@]4(C)CC[C@@H]1[C@]32OO4", "testResult": "< 0.0178 µM"}
{"molecule": "COc1cc2nc(-c3ccc(-n4cncc4-c4ccc(N)cc4)cc3)sc2c(OC)c1OC", "testResult": "3.87 µM"}
{"molecule": "C[C@@]1(c2ncncc2F)NC(=O)c2cc(-c3cn[nH]c3)ccc21", "testResult": "18.7 µM"}

Write down the reported GI50 of CC1CCC2C(C)C3C(CC4C5CC=C6CC(OC7OC(CO)C(O)C(OC8OC(CO)C(O)C(O)C8O)C7OC7OC(C)C(O)C(O)C7O)CCC6(C)C5CCC43C)N2C1 (stereo not drawn) , test system: NCI-H23 lung.
> 2.5 µg/mL

Write down the reported GI50 of "O=C(Nc1cccc(C(F)(F)F)c1)c1cccc(NC2=C(Cl)C(=O)N(Cc3ccccc3)C2=O)c1" , test system: NCI-H23 lung.
25.4 µM

Write down the reported GI50 of "CCCC[P+](c1ccccc1)(c1ccccc1)c1ccccc1" , test system: NCI-H23 lung.
2.57 µM

Write down the reported GI50 of COc1ccc(C2C(c3ccccc3)C(=O)N2c2cc(OC)c(OC)c(OC)c2)cc1I (stereo not drawn) , test system: NCI-H23 lung.
0.623 µM

Write down the reported GI50 of "O=C(Nc1cccc2cccnc12)c1ccc(N2C(=O)[C@@H]3[C@H](C2=O)[C@@H]2C=C[C@H]3C2)cc1" , test system: NCI-H23 lung.
23.5 µM

* * *

tested on: PC-3 prostate; assay: NCI tumour cell line growth inhibition, 48 h
TGI values for the compounds below.

{"compound": "Cc1cc(NC(=O)C(=O)Cc2cnc3ccccc3n2)c(S(=O)(=O)O)cc1Cl", "TGI": "> 100 µM"}
{"compound": "CS(=O)(=O)OCCN(CCOS(C)(=O)=O)c1ccc(C=Nc2ccc3oc(=O)ccc3c2)cc1", "TGI": "80.7 µM"}
{"compound": "CCCCSC1=N/C(=C\\c2ccco2)C(=O)N1", "TGI": "> 100 µM"}
{"compound": "COc1cc(C)cc2c1C(=O)C(Br)=CC2=O", "TGI": "31.3 µM"}

Quick one: TGI for COc1ccc2c(c1)N(C(C)=O)CN1C(=O)CCC21 (stereo unspecified) ?
> 100 µM

Quick one: TGI for "Cc1ncc(CO)c(CN)c1O" ?
> 100 µM

Quick one: TGI for COc1ccc(NC(=O)c2sc3nc(C)c(C(O)c4ccc(OC)cc4)cc3c2N)cc1 (stereo unspecified) ?
> 50 µM

Quick one: TGI for "C=C1CC2(OC1=O)c1ccccc1C=Cc1ccccc12" ?
16.3 µM

Quick one: TGI for COc1cc(C2CC(c3ccc4c(c3)OCO4)=NN2C(C)=O)cc(OC)c1OC (stereo unspecified) ?
> 100 µM

Quick one: TGI for "C=C(C)[C@@H]1CC[C@@H](C)[C@](O)([C@@H]2C[C@@H]([C@H](COC(=O)c3ccccc3)OC(=O)c3ccccc3)OC2=O)C1" ?
> 100 µM

Quick one: TGI for "O=C(Nc1cccc(C(F)(F)F)c1)c1cccc(NC2=C(Cl)C(=O)N(Cc3ccccc3)C2=O)c1" ?
14.3 µM

* * *

TGI values for the compounds below.
tested on: HOP-62 NSCLC; experiment: NCI tumour cell line growth inhibition, 48 h

{"compound": "CN(C)[C@@H]1C(=O)C(C(=O)NCNCCCC(=O)O)=C(O)[C@@]2(O)C(=O)C3=C(O)c4c(O)cccc4[C@@](C)(O)[C@H]3C[C@@H]12", "TGI": "> 100 µM"}
{"compound": "CC(NC(=O)/C(C#N)=C/c1ccc2[nH]ccc2c1)c1ccccc1 (stereo not given)", "TGI": "33.4 µM"}
{"compound": "CC(C)CNc1nc(N)[nH]c(=O)c1NC=O", "TGI": "> 100 µM"}
{"compound": "CCCCSCc1nc2nc(Cl)c(Cl)nc2[nH]1", "TGI": "42 µM"}
{"compound": "COc1ccc(C2CC(=O)Oc3ccccc3O2)cc1 (stereo not given)", "TGI": "> 100 µM"}
{"compound": "CC(=O)OCC1OC(n2c3c(c(-c4ccc(Cl)cc4)c(C#N)c2=S)C(=O)CC(C)(C)C3)C(OC(C)=O)C(OC(C)=O)C1OC(C)=O (stereo not given)", "TGI": "> 100 µM"}
{"compound": "O=C(CSCC(=O)N/N=C/c1cccc(OCc2ccccc2)c1)N/N=C/c1cccc(OCc2ccccc2)c1", "TGI": "> 100 µM"}
{"compound": "CCOC(=O)CC1=NC(=Nc2cc(Cl)ccc2Cl)SC1", "TGI": "> 100 µM"}

Quick one: TGI for "CCCCCC(=O)OCC(=O)O[C@@H]1C[C@]2(C(C)C)O[C@@]1(C)[C@@H]1CC[C@@H](C)[C@H]1[C@@H]2OC(=O)/C=C/c1ccccc1" ?
> 100 µM

Quick one: TGI for COC(=O)/C(C#N)=C1\NC(=O)CC(c2ccccc2)C1C#N (stereo not given) ?
> 100 µM

Quick one: TGI for "COc1ccc(CCNCc2cccc(OC)c2OC)cc1OC" ?
> 100 µM

Quick one: TGI for O=C(CC1(O)C(=O)Nc2ccc(Br)cc21)c1ccc(C(=O)NCC2CCC3(CC2)OOC2(CCCCC2)OO3)cc1 (stereo not given) ?
40.7 µM

Quick one: TGI for "C=CCNC(=O)/C(Cc1cc(Br)c(OC)c(Br)c1O)=N\O" ?
22.9 µM

Quick one: TGI for "c1ccc([C@@H]2N[C@@]3(CO[Si](c4ccccc4)(c4ccccc4)c4ccccc4)CC[C@H]4CN[C@@H]2[C@H]43)cc1" ?
31.2 µM

Quick one: TGI for "COc1ccc2nc3cc([N+](=O)[O-])ccc3c(NNc3ccc(Cl)cc3)c2c1" ?
> 78.8 µM

Quick one: TGI for "COc1cc(OC)c(OC)cc1/C=C1\C=Cc2ccccc21" ?
37.5 µM

Quick one: TGI for COc1cc2c(cc1OC)C1C(O)C(OC)C=C3CC[N+](C)(C2)C31 (stereo not given) ?
> 100 µM

Quick one: TGI for Fc1ccc(F)c(C2SCc3nc4ccccc4n32)c1 (stereo not given) ?
> 100 µM

Quick one: TGI for "c1ccc2[nH]c3[nH]c4[nH]c5ccccc5[nH]c4[nH]c3[nH]c2c1" ?
> 100 µM

Quick one: TGI for "NCS(=O)(=O)O" ?
> 100 µM

* * *

system: LOX IMVI melanoma; assay: NCI tumour cell line growth inhibition, 48 h; in the data active = GI50 below about 0.43 µM; inactive = the rest
Parameter call: string, one of active, inactive

{"compound": "Oc1ccc(Br)cc1/C=N/NC(=S)NC12CC3CC(CC(C3)C1)C2", "assayedSystem": "LOX IMVI melanoma", "className": "inactive"}
{"compound": "C[C@H]1CCC/C=C/[C@@H]2C[C@H](O)C[C@H]2[C@H](O)[C@@H](S(=O)CCN)CC(=O)O1 (some centres undefined)", "assayedSystem": "LOX IMVI melanoma", "className": "active"}
{"compound": "COc1cccc2c1cc([N+](=O)[O-])c1c(C(=O)O)cc3c(c12)OCO3", "assayedSystem": "LOX IMVI melanoma", "className": "inactive"}
{"compound": "COc1ccc2c(c1OC)-c1c(c3ccc([N+](=O)[O-])cc3c(=O)n1CCCN=[N+]=[N-])C2=O", "assayedSystem": "LOX IMVI melanoma", "className": "inactive"}
{"compound": "CC(F)(F)c1cc(F)ccc1-c1sc2cc(O)ccc2c1Oc1ccc(/C=C/C(=O)O)cc1", "assayedSystem": "LOX IMVI melanoma", "className": "inactive"}

Would you mind telling me which call this test gave Cc1ccc2[nH]c(C(=O)NN3C(=O)CSC34CCCC(C)C4)c(-c3ccccc3)c2c1 (centres undefined) ?
inactive

Would you mind telling me which call this test gave COc1ccc(NC(=O)c2sc3nc(C)c(C(O)c4ccc(OC)cc4)cc3c2N)cc1 (centres undefined) ?
inactive

Would you mind telling me which call this test gave "O=C(Nc1cccc(C(F)(F)F)c1)c1cccc(NC2=C(Cl)C(=O)N(Cc3ccccc3)C2=O)c1" ?
inactive

Would you mind telling me which call this test gave "CCN(Cc1nc2cc(C(F)(F)F)ccc2nc1-c1ccccc1)c1ccc(OC)c(OC)c1" ?
inactive

Would you mind telling me which call this test gave "COC(=O)c1c2c(c(C)[n+]([O-])c1C)C(=O)C(NCc1cccc(OC)c1)=CC2=O" ?
inactive

Would you mind telling me which call this test gave CC(C)=CCC/C(C)=C/CC/C(=C/COP(=O)(OCc1ccc([N+](=O)[O-])o1)N(C)CCCCCl)CC=C(C)C (centres undefined) ?
inactive

Would you mind telling me which call this test gave "CN1CCN(Cc2ccc(NC(=O)c3[nH]ncc3Nc3ncnc4sccc34)cc2)CC1" ?
active

Would you mind telling me which call this test gave "O=C(NCCCNC(=O)OCc1ccc2c(Br)cc(Br)c(O)c2n1)OCc1ccc2c(Br)cc(Br)c(O)c2n1" ?
inactive

Would you mind telling me which call this test gave "CCOC(=O)c1cc2cc(NC(=O)c3cc4cc([N+](=O)[O-])ccc4n3C)ccc2n1C" ?
inactive
